Source listed as ChEMBL document CHEMBL1212890.

Entries and their MIC values follow.
System: Staphylococcus aureus
assayComment: Antimicrobial activity against Staphylococcus aureus ATCC 6538 after 24 hrs by broth microdilution method
Format: functional
runConditions: ATCC 6538, 24 h
# unit: µg/mL | format: bare number

O=C(O)c1cn(C2CC2)c2c(cc(F)c3c2[nH]c2ccsc23)c1=O : 0.03
O=C(O)c1cn(C2CC2)c2c(cc(F)c3c4ccc(F)cc4[nH]c32)c1=O : 0.07
O=C(O)c1cn(C2CC2)c2c(cc(F)c3c4ccccc4[nH]c32)c1=O : 0.3
CO/N=C1\CN(c2nc3c(cc2F)c(=O)c(C(=O)O)cn3C2CC2)CC1CN (stereo not given) : 0.015

Provide measured MIC value, entry: `COc1c(C)cc2c([nH]c3c2c(F)cc2c(=O)c(C(=O)O)cn(C4CC4)c23)c1C`
6

Report measured MIC; entry is `C[C@H]1COc2c(N3CCN(C)CC3)c(F)cc3c(=O)c(C(=O)O)cn1c23.C[C@H]1COc2c(N3CCN(C)CC3)c(F)cc3c(=O)c(C(=O)O)cn1c23.O`
0.07

Indicate its recorded MIC; the molecule in question is `COc1ccc2c(c1)[nH]c1c2c(F)cc2c(=O)c(C(=O)O)cn(C3CC3)c21`
3

Identify measured MIC corresponding to `COc1c(N2C[C@@H]3CCCN[C@@H]3C2)c(F)cc2c(=O)c(C(=O)O)cn(C3CC3)c12`
0.03

Recall and state the measured MIC for `O=C(O)c1cn(C2CC2)c2cc(N3CCNCC3)c(F)cc2c1=O` .
0.3
